Target: Tyrosine-protein kinase JAK3 (Homo sapiens, UniProt P52333)
Sequence (P52333 whole entry): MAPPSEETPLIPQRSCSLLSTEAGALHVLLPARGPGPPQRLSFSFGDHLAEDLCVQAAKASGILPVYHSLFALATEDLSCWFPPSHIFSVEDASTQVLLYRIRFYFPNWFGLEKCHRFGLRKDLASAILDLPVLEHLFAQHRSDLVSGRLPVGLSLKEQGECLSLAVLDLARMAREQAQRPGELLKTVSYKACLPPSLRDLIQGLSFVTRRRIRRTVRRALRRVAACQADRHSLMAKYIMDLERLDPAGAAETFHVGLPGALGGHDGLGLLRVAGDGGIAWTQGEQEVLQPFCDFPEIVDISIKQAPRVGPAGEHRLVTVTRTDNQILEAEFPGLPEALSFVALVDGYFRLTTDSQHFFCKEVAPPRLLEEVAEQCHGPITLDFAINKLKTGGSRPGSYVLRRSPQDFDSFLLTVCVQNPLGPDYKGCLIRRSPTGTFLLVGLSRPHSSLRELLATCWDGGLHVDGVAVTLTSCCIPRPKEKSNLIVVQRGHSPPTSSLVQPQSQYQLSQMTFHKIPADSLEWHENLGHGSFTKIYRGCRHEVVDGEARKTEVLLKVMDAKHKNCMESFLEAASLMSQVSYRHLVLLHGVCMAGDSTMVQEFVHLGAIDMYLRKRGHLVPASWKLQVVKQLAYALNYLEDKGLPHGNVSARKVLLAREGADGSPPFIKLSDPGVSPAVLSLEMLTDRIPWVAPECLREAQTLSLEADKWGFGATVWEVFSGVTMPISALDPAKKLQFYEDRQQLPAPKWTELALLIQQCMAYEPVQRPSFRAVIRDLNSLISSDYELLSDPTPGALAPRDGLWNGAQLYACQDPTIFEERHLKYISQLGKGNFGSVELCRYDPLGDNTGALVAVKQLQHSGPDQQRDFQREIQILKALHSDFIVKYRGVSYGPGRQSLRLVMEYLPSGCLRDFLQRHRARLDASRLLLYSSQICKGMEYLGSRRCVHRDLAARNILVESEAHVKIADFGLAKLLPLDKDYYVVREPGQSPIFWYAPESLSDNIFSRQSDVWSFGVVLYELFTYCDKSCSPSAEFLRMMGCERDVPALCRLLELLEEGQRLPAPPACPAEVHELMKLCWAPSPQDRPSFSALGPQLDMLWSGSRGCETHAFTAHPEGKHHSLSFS
pIC50: −log10 of the molar value.
// cross-source set; read-out = pIC50; system = Tyrosine-protein kinase JAK3 (Homo sapiens, UniProt P52333)

Worked cases, answers included:
- molecule: "CN1CCN(c2ccc(Nc3ncc(NC(=O)c4cc(NC(=O)c5ccc6c(c5)OC(F)(F)O6)ccc4Cl)cn3)cc2)CC1"
  pIC50: "< 5.30"
- molecule: "CN(c1ncnc2[nH]ccc12)N1CCCC(C)(C(=O)NCC#N)C1 (stereo not drawn)"
  pIC50: 5.80

Now look at this entry.
Give its pIC50 value. Item: `CNc1nccc(-c2cccnc2Oc2ccc(NC(=O)c3ccccc3Nc3ccccc3)cc2)n1`
< 6.00
